- System: SF-295 CNS
- assay overview: NCI-60 one-dose screen, 48 h (100 = growth as untreated, 0 = no growth, -100 = all killed)
- applied conditions: 10 µM unless noted
Compounds without any hit were thinned out: in the full panel of roughly 83,000, 20% have a hit.
Measured growth, listed per entry for reference.

# structure smiles, growth (%)
rows = [
    ("CCOc1ccccc1Cn1ccnc1CCc1c(Cl)c(O)cc(O)c1C(=O)OC", 95.2),
    ("COc1ccc(OC)c(-c2nc(SCC(=O)c3ccc(C#N)cc3)[nH]c(=O)c2C#N)c1", 99.5),
    ("Cn1c(I)c(C#CCO[Si](C)(C)C(C)(C)C)c(=O)[nH]c1=O", 101),
    ("CCn1cc(C(=O)NNC(=S)Nc2ccc(C)cc2)c(=O)c2ccc(C)nc21", 102),
    ("O=S(=O)(Nc1ccc(F)cc1F)c1ccc(-c2cnc(C3CC3)o2)cc1", 30.7),
]
